- Assayed Target: UniProt:P08253
- Sequence (P08253 whole entry): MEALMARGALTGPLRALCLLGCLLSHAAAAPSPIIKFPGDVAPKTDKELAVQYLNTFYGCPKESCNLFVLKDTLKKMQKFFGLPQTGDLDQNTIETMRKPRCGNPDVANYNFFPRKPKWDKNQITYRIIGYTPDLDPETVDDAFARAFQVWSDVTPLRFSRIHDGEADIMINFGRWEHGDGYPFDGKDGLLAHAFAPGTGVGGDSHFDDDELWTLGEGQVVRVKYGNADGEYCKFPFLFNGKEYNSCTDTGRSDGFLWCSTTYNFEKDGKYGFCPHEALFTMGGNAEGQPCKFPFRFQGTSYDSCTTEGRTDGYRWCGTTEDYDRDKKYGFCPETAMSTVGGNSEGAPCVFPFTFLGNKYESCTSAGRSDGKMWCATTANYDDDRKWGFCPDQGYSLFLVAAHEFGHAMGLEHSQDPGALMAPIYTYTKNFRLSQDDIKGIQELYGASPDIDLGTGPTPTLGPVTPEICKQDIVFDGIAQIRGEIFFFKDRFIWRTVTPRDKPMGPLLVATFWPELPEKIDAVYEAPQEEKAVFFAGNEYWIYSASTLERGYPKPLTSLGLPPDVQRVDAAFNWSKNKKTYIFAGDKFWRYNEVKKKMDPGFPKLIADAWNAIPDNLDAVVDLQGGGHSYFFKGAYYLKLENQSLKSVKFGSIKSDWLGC
Assay Readout: pIC50
Numbers only, as −log10 of the molar value.

Prompt: For the molecule shown here, COc1ccc(-c2cnc(-c3ccc(S(=O)(=O)NC(C(=O)O)C(C)C)cc3)s2)cc1 (stereo unspecified) , give the reported pIC50.
Completion: 6.70

###

Consider the following IC50 values measured on Matrix metalloproteinase-9 (Homo sapiens, UniProt P14780).
Sequence (P14780 whole entry): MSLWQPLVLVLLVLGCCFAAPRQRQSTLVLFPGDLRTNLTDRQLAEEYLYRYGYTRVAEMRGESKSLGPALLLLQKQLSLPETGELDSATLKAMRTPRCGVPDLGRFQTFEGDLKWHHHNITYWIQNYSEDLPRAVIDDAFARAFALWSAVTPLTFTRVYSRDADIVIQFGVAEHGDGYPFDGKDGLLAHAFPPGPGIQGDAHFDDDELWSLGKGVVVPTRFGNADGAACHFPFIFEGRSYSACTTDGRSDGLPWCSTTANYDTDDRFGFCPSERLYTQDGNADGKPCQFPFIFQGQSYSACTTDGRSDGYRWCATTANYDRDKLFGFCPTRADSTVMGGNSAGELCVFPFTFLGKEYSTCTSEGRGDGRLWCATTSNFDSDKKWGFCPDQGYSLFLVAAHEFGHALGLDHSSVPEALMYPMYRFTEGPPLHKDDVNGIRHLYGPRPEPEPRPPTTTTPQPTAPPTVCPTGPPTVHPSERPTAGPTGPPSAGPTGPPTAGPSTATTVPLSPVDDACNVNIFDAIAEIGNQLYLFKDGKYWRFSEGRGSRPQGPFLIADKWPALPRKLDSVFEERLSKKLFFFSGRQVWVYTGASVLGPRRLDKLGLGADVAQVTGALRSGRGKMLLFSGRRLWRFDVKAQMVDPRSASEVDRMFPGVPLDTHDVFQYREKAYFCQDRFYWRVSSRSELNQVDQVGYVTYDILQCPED
Give bare numbers, in nM.

Before answering, review these 2 worked examples.
compound="COc1ccc(-c2cnc(-c3ccc(S(=O)(=O)NC(C(=O)CCC(=O)O)C(C)C)cc3)o2)cc1 (stereo not drawn)" assayed_target="Matrix metalloproteinase-9 (Homo sapiens, UniProt P14780)" assay_readout=IC50 readout_units=nM endpoint_result=10000
compound="COc1ccc(-c2cnc(-c3ccc(S(=O)(=O)NC(C(=O)NO)C(C)C)cc3)s2)cc1 (stereo not drawn)" assayed_target="Matrix metalloproteinase-9 (Homo sapiens, UniProt P14780)" assay_readout=IC50 readout_units=nM endpoint_result=900

Here's the next entry for you.
Prompt: Tell me reported IC50 for COc1ccc(-c2cnc(-c3ccc(S(=O)(=O)NC(C(=O)NO)C(C)C)cc3)o2)cc1 (stereo not drawn) , tested with Matrix metalloproteinase-9 (Homo sapiens, UniProt P14780).
Completion: 1000

Reference source for all entries: ChEMBL document CHEMBL1137962
